# system name: recombinant human ACC2 (Homo sapiens)
# Construct: a cDNA encoding human ACC2 (27-2458) was cloned from human kidney cDNA library (Clontech); His-tag (N); made in house; host or cells: Sf-9 insect cells (Bac-to-Bac baculovirus)
# assay notes: Measurement of inhibitory activity on human ACC2 (MALDI-TOF MS, acetyl CoA to malonyl CoA conversion)
# Assay type: biochemical
# recorded conditions: inhibition activity on human ACC2, untitled table (Table 81); read-out: IC50
measurement label: IC50 (nM)

{"columns": ["molecule", "system name", "measurement label", "unit label", "measured number"],
 "data": [
  ["CC(=O)N[C@@H](C)/C=C/c1ccc(Oc2ccc(OCCOC3CCCCO3)cc2Cl)nc1 (stereo partly shown)", "recombinant human ACC2 (Homo sapiens)", "IC50", "nM", 630]
]}

[I] CC(=O)N[C@@H](C)/C=C/c1cnn(Cc2cc(Cl)c(OCC3CC3)c(Cl)c2)c1
[II] CCOc1cc(Oc2ccc(/C=C/[C@H](C)NC(C)=O)cn2)ccc1F
[III] CC#Cc1ccc(Oc2ccc(/C=C/[C@H](C)NC(C)=O)cn2)c(Cl)c1
Query :: Put the items in order so that reported IC50 rises from first to last. Give your ranking as a list of the labels in the requested order.
Result :: III, II, I
(III: 17 nM, II: 170 nM, I: 840 nM)

---

# system name: recombinant human ACC2 (Homo sapiens)
# Construct: a cDNA encoding human ACC2 (27-2458) was cloned from human kidney cDNA library (Clontech); His-tag (N); made in house; host or cells: Sf-9 insect cells (Bac-to-Bac baculovirus)
# assay notes: Measurement of inhibitory activity on human ACC2 (MALDI-TOF MS, acetyl CoA to malonyl CoA conversion)
# Assay type: biochemical
# recorded conditions: inhibition activity on human ACC2, Table 84; read-out: IC50
measurement label: IC50 (nM)

{"columns": ["smiles repr", "unit label", "IC50"],
 "data": [
  ["CC(=O)N[C@@H](C)/C=C/c1cnc(Oc2ccc(OCC3CC3)cc2Cl)c(F)c1", "nM", 25],
  ["CC(=O)N[C@@H](C)/C=C/c1ccc(Oc2cnc(N3CCCCC3)nc2)nc1", "nM", 96],
  ["CC(=O)N[C@@H](C)/C=C/c1ccc(Oc2ccc3nc(C(C)C)sc3c2Cl)nc1", "nM", 6.9]
]}

[P] CCN1CCc2cc(Oc3ccc(/C=C/[C@H](C)NC(C)=O)cn3)ccc2C1=O
[Q] CCCc1ccc(Oc2ccc(/C=C/[C@H](C)NC(C)=O)cn2)c(Cl)c1Cl
Query :: Returns: the argument ( P or Q ) having the larger IC50. Answer with the label corresponding to your selection.
Result :: P
(P: 520 nM, Q: 20 nM)

[1] CC(=O)N[C@@H](C)/C=C/c1ccc(Oc2cc3c(cc2Cl)OCC3)nc1
[2] CCOc1ccc(OCc2cccc(/C=C/[C@H](C)NC(C)=O)n2)c(Cl)c1
Query :: Looking at recorded values for IC50, does 1 or 2 come in lower? Answer with the label corresponding to your selection.
Result :: 2

---

# system name: recombinant human ACC2 (Homo sapiens)
# Construct: a cDNA encoding human ACC2 (27-2458) was cloned from human kidney cDNA library (Clontech); His-tag (N); made in house; host or cells: Sf-9 insect cells (Bac-to-Bac baculovirus)
# assay notes: Measurement of inhibitory activity on human ACC2 (MALDI-TOF MS, acetyl CoA to malonyl CoA conversion)
# Format: biochemical
# recorded conditions: inhibition activity on human ACC2, Table 84; read-out: IC50
measurement label: IC50 (nM)

{"columns": ["compound", "system name", "unit label", "IC50"],
 "data": [
  ["CC(=O)N[C@@H](C)/C=C/c1ccc(Oc2ccc(Oc3ccc([N+](=O)[O-])cc3)cc2Cl)nc1 [Compound I-451]", "recombinant human ACC2 (Homo sapiens)", "nM", 25]
]}

[a] CCOC(=O)c1cnc(Oc2ccc(Oc3ccc(/C=C/[C@H](C)NC(C)=O)cn3)c(Cl)c2)s1 [Compound I-441]
[b] CCOc1ccc(OCc2cccc(/C=C/[C@H](C)NC(C)=O)c2)c(Cl)c1 [Compound I-506]
Query :: Looking at recorded values for IC50, does a or b come in lower? Answer with the label corresponding to your selection.
Result :: b

---

# system name: recombinant human ACC2 (Homo sapiens)
# Construct: a cDNA encoding human ACC2 (27-2458) was cloned from human kidney cDNA library (Clontech); His-tag (N); made in house; host or cells: Sf-9 insect cells (Bac-to-Bac baculovirus)
# assay notes: Measurement of inhibitory activity on human ACC2 (MALDI-TOF MS, acetyl CoA to malonyl CoA conversion)
# Type: biochemical
# recorded conditions: inhibition activity on human ACC2, Table 80; read-out: IC50
measurement label: IC50 (nM)

[P] CC(=O)c1ccc(C(=O)N[C@@H](C)/C=C/c2cnc(Oc3ccc(OCC4CC4)cc3Cl)s2)s1 [Compound I-148]
[Q] C[C@@H](/C=C/c1cnc(Oc2ccc(OCC3CC3)cc2Cl)s1)NC(=O)c1ccnc(CO)c1 [Compound I-237]
Query :: Returns: the argument ( P or Q ) having the larger IC50. Answer with the label corresponding to your selection.
Result :: P
(P: 880 nM, Q: 87 nM)

---

# system name: recombinant human ACC2 (Homo sapiens, UniProt O00763)
# Construct: a cDNA encoding human ACC2 (27-2458) was cloned from human kidney cDNA library (Clontech); His-tag (N); made in house; host or cells: Sf-9 insect cells (Bac-to-Bac baculovirus)
# Sequence (O00763 27-2458): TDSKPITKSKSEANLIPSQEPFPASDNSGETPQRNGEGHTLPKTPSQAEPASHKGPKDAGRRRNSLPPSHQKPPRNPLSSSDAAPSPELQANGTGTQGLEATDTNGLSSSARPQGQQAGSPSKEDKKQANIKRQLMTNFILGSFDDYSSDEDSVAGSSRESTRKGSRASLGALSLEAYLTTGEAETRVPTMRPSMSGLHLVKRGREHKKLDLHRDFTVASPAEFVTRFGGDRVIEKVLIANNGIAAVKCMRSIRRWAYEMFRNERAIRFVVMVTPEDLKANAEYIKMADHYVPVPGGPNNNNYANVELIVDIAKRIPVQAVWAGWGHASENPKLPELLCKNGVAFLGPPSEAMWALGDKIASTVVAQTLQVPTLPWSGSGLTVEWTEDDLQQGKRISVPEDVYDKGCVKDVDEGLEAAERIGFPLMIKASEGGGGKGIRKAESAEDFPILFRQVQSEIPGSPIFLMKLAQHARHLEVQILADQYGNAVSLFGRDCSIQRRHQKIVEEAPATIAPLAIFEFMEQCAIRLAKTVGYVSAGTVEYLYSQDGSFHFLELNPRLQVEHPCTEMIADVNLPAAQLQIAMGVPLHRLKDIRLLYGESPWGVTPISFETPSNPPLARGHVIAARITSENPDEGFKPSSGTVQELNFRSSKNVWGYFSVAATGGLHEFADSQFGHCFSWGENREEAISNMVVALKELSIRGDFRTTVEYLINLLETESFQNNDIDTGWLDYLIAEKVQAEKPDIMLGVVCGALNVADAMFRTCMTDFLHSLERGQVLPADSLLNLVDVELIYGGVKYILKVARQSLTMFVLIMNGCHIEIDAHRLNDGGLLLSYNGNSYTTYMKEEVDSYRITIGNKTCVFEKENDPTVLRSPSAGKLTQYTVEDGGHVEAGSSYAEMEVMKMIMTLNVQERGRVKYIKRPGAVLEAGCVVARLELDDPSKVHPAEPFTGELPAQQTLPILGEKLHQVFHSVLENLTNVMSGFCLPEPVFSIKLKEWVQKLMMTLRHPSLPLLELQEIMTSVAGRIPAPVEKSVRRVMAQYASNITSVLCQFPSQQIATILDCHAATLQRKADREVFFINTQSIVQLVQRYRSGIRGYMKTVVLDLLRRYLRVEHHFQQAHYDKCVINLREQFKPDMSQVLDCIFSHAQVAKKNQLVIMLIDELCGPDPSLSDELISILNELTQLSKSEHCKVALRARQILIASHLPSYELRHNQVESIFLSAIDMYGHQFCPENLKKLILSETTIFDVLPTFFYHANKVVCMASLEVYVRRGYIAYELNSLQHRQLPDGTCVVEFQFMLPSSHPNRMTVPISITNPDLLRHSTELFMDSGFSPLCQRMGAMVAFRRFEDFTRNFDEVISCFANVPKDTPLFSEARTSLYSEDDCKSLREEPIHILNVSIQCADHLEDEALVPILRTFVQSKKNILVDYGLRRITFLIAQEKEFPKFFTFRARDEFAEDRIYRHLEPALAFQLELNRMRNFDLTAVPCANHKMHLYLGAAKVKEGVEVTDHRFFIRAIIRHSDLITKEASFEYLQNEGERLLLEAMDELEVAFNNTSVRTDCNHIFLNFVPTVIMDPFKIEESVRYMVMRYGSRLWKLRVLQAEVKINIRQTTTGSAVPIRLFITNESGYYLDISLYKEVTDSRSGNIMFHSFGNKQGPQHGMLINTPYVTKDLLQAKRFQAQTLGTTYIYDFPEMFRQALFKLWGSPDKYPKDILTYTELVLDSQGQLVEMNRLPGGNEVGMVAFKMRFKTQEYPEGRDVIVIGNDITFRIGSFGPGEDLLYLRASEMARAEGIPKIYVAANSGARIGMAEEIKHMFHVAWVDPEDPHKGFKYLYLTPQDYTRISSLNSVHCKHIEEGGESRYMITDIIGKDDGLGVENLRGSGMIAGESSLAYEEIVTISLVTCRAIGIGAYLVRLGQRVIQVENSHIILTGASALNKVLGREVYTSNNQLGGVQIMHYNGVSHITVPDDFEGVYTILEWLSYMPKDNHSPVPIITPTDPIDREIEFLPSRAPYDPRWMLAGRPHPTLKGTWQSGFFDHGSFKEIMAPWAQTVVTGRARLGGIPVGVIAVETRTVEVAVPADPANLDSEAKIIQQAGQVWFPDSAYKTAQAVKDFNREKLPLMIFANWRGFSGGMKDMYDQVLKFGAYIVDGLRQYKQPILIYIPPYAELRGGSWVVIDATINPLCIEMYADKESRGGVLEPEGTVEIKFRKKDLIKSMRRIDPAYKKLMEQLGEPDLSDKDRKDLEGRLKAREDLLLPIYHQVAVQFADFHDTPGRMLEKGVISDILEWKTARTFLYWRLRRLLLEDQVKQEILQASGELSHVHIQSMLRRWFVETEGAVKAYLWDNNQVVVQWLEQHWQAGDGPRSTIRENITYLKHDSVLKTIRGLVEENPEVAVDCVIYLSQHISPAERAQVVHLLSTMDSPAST
# assay notes: Measurement of inhibitory activity on human ACC2 (MALDI-TOF MS, acetyl CoA to malonyl CoA conversion)
# Type: biochemical
pIC50: −log10 of the molar value.
measurement label: pIC50

Before answering, review these 2 worked examples.
{"columns": ["molecule", "pIC50"],
 "data": [
  ["CC(=O)N[C@@H](C)/C=C/c1ccc(Oc2ccc(-c3nccs3)cc2Cl)nc1 [Compound I-416]", 6.77],
  ["CCCc1ccc(Oc2ccc(/C=C/[C@H](C)NC(=O)CNC(C)=O)cn2)c(Cl)c1 [Compound I-392]", 6.01]
]}

[a] CC(=O)N[C@@H](C)/C=C/c1cc(Oc2ccc(OCC3CC3)cc2Cl)no1 [Compound I-381]
[b] CC(=O)N[C@@H](C)/C=C/c1ccc(Oc2ccc(-c3cnc(C(F)(F)F)cn3)cc2Cl)nc1 [Compound I-417]
Query :: Looking at recorded values for pIC50, does a or b come in lower? Answer with the label corresponding to your selection.
Result :: a
(a: 6.44, b: 7.24)

[a] CC(=O)N[C@@H](C)/C=C/c1ccc(Oc2ccc(N3CCCCC3)cc2Cl)nc1 [Compound I-383]
[b] CC(=O)N[C@@H](C)/C=C/c1cnc(Oc2ccc(C(C)(C)C(F)(F)F)cc2Cl)nc1 [Compound I-427]
Query :: Returns: the argument ( a or b ) having the larger pIC50. Answer with the label corresponding to your selection.
Result :: a
(a: 7.54, b: 6.70)

[P] CC(C)C(F)(F)c1ccc(Oc2ccc(/C=C/[C@H](C)NC(N)=O)cn2)c(Cl)c1 [Compound I-399]
[Q] CC(=O)N[C@@H](C)/C=C/c1ccc(Oc2ccc3c(c2)CCCC3)nc1 [Compound I-398]
Query :: Looking at recorded values for pIC50, does P or Q come in lower? Answer with the label corresponding to your selection.
Result :: P

---

# system name: recombinant human ACC2 (Homo sapiens, UniProt O00763)
# Construct: a cDNA encoding human ACC2 (27-2458) was cloned from human kidney cDNA library (Clontech); His-tag (N); made in house; host or cells: Sf-9 insect cells (Bac-to-Bac baculovirus)
# assay notes: Measurement of inhibitory activity on human ACC2 (MALDI-TOF MS, acetyl CoA to malonyl CoA conversion)
# Format: biochemical
# recorded conditions: inhibition activity on human ACC2, Table 84; read-out: IC50
measurement label: IC50 (nM)

Before answering, review these 3 worked examples.
{"columns": ["molecule", "measured number"],
 "data": [
  ["CC(=O)N[C@@H](C)/C=C/c1ccc(Oc2ccc(CC(C)(C)C)cc2Cl)cn1", 140],
  ["CC(=O)N[C@@H](C)/C=C/c1ccc(Oc2ccc(Oc3ccc(C#N)cc3)cc2Cl)nc1", 42],
  ["CCOc1ccc(Oc2ccc(/C=C/C(C)CNC(C)=O)cn2)c(Cl)c1 (centres unmarked)", 560]
]}

[I] CC(=O)N[C@@H](C)/C=C/c1ccc(Oc2ccc3nc(C(C)(C)C)sc3c2)nc1
[II] CCCc1ccc(Oc2ccc(/C=C/[C@H](C)NC(C)=O)cn2)c(C(F)(F)F)c1
[III] CC(=O)N[C@@H](C)/C=C/c1ccc(Oc2ccc3nc(C)sc3c2Cl)nc1
[IV] CC(=O)N[C@@H](C)/C=C/c1ccc(Oc2cc(C)c(C)cc2Cl)nc1
Query :: Put the items in order so that reported IC50 rises from first to last. Give your ranking as a list of the labels in the requested order.
Result :: I, III, II, IV
(I: 6.5 nM, III: 30 nM, II: 82 nM, IV: 310 nM)

[P] CC(=O)N[C@@H](C)/C=C/c1ccc(Oc2ccc3c(c2)OCCO3)nc1
[Q] CC(=O)N[C@@H](C)/C=C/c1ccc(Oc2ccc3nc(C(F)(F)F)sc3c2)nc1
Query :: Returns: the argument ( P or Q ) having the larger IC50. Answer with the label corresponding to your selection.
Result :: P
(P: 37 nM, Q: 13 nM)
